- protocol: 14C assay: 14CO2 capture from [14C]-carboxyl-labeled dicamba with IPTG-induced recombinant E. coli cells
- condition label: IPTG-induced recombinant E. coli cells; 14CO2 from [14C]-carboxyl-labeled dicamba

| molecule | Dicamba Decarboxylase Activity |
| --- | --- |
| 8 (protein, listed as Metarhizium anisopliae) MARGKINFEEAFELPTLADSSREQAALYIAPKDLDRYIYHIKHPLGERLQLANSHGIGYTIYSLTVPGIQGIPDQSKAEQHATTVNDWIANEIKDHRDRLGAFAALSMHDAAQAAAELERCVRQHGFHGALLNNYQHAGPDGETYLFYDQPAYDVFWQKCVELDVPVYLHPAAPAGNYYKQMYAQRKYLVGPPLSFANDVSLHLLGLVTNGVFDRFPKLKVVVGHLGEHIPFDFWRISHWLEDVERPLAAGRGDVMSKKDLLYYFKNNIWVTTSGHFSTPTVRYVADYLGPERIMFSVDTPYETIENGVGWFDGEEDALTRALGGEDGYKKVARENAKKLFKLTKYHDCDA | Low |
| 64 (protein, listed as Achromobacter piechaudii) MAIQKIDMHAHFFPPITRQEAAALDPVNAPWLRPDADGATGQIMAGEREFRPVDATLWDPALRIEQMDRHGVDVQILCATPIMFGYTYPARPAADWAARMNDLALEHCAYAPSRLKALAQVPLQDLELACQEASRARAAGHLGVQIGNHVGPRDLDDETLVQFLIHCANNDIPVLVHPWDMMTDGRMKKWMLPWLVSMPAETQLGILSLILSGAFERIPRSLKLCFAHGGGSFAYLLGRVDNAWRHRDIIRQDCPQLPSSYTDRFYTDSAVFDPRSLRLLIDVMGEDRVLLGSDYPYPLGEQEVGRLVAHAELVPEVQQKILFRNTMTFFGLQPGLQPGLQS | Low |
| 53 (protein, listed as Granulicella tundricola) MARTITLEEHFVTDSFLRATGAYDKPAPPWLAQLQPKLLDLGDGRIAAMDEAGIDLQVLSLAALGFDALDAATATPLVHDINDELAAAVRANPTRLAAFASLALKDPQSAARELERAIQKLGFRGVLLDGTTDGLFLDDPRFTPVFEAAVALNVPIYLHPAPPPESVFDTYFTGLPEGVGQMLSIAGWGWHAETALHTLRLITNGVFDRYPTLQLIIGHMGEMLPMALARTSKALSHAARLRQPVAAYFQSNIHLTTSGYFTQPPLRCALDVVGIDRLMFSIDYPFSANTLGRDYLTELEQTLTPEDLAKLIHRNAESLLNLS | High |
| 97 (protein, listed as Sphingobium sp.) MAMMIIDCHGHYTVLPKAHDEWREQQKAAFKAGQPAPPYPEISDDEIRETIEANQLRLIKERGADMTIFSPRASAMAPHVGDQSVAVPWAQACNNLIARVVDLFPETFAGVCMLPQSPEADMTSSIAELERCVNELGFIGCNLNPDPGGGHFKHPPLTDRFWYPFYEKMVELDVPAMIHVSGSCNPAMHATGAYYLAADTIAFMQLLQGNLFADFPTLRFIIPHGGGAVPYHWGRFRGLADMLKQPSLDTLLMNNVFFDTCVYHQPGINLLADVIDNKNILFGSEMVGAVRGIDPTTGHYFDDTKRYIDALDISDQERHAIFEGNTRRVFPRLDAKLKARGL | No |
